- Target system: UniProtKB P28223
- Sequence (P28223 whole entry, species assumed): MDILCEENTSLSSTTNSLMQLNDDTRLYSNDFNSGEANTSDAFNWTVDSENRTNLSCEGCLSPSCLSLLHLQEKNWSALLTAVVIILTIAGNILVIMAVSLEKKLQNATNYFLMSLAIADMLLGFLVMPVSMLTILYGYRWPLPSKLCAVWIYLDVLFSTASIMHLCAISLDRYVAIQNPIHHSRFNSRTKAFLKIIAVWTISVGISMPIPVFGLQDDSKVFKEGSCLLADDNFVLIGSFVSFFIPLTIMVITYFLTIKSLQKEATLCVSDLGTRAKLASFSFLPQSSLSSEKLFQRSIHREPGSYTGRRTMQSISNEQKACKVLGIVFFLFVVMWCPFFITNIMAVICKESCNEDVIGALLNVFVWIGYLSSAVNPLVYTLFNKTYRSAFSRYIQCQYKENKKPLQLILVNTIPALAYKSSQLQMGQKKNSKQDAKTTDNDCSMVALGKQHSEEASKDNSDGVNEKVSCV
- Procedure details: PDSP radioligand binding
Property: Ki (nM)

| Compound | Property | Unit | Numeric readout |
| --- | --- | --- | --- |
| COc1ccc(N=Nc2ccc3[nH]cc(CCN(C)C)c3c2)cc1 [2h] | Ki | nM | 225 |

Taken from paper PMC9324199.
